Target: T1, recombinant human CTLA4-his protein (Acro biosystems, Cat#CT4-H5229) (human, UniProt P16410 37-162)
T1 construct: bought recombinant protein; not shown: his tag
T1 sequence (looked up): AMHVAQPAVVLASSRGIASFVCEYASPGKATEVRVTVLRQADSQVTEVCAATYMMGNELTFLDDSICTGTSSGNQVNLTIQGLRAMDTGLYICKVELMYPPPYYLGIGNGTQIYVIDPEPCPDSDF
Assay: BLI, Octet; antibody from cell supernatant on AHC sensor, CTLA4-his as analyte
measured_quantity: kon (M⁻¹ s⁻¹)
Express your answer in M⁻¹ s⁻¹, writing the number without its unit.

[[record]]
binder = "huD1D5-V2 (antibody, human IgG4 S228P, kappa, V domains shown, humanized IgG4/kappa; tested as 293F cell supernatant on Octet; also called hu CTLA4 D1D5-V2) VH: EVQLVESGGGLVKPGGSLRLSCAASGFTFSDYGMAWVRQAPGKGLEWVAFISNLAYSVYYADTETGRFTISRDNAKNSLYLQMNSLRAEDTAVYYCARSGLPYAMDYWGQGTTVTVSS VL: DIQMTQSPSSLSASVGDRVTITCRASQDISNYLNWYQQKPGKTVKLLIYYISRLHSGVPSRFSGSGSGTDFTLTISSLQPEDVATYFCQQGRMLPWTFGGGTKVEIKR"
unit_abbrev = "M⁻¹ s⁻¹"
reading = 86800


[Q] Identify kon associated with the binder huC1D1-V4 (antibody, human IgG4 S228P, kappa, V domains shown, humanized IgG4/kappa; tested as 293F cell supernatant on Octet; also called hu CTLA4 C1D1-V4) VH: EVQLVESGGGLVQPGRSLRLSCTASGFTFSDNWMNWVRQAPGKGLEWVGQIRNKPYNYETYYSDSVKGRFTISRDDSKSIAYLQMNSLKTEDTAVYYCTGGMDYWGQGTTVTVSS VL: DIQMTQSPSSLSASVGDRVTITCGASEIIYGALNWYQQKPGKSPKLLIYGATNLADGMPSRFSGSGSGRDYTLTISSLQPEDVATYYCQKILSPPPWTFGGGTKVEIKR
[A] 240000
